Biological target: MNK2 (Homo sapiens)
Sequence (Q9HBH9 whole entry, species assumed): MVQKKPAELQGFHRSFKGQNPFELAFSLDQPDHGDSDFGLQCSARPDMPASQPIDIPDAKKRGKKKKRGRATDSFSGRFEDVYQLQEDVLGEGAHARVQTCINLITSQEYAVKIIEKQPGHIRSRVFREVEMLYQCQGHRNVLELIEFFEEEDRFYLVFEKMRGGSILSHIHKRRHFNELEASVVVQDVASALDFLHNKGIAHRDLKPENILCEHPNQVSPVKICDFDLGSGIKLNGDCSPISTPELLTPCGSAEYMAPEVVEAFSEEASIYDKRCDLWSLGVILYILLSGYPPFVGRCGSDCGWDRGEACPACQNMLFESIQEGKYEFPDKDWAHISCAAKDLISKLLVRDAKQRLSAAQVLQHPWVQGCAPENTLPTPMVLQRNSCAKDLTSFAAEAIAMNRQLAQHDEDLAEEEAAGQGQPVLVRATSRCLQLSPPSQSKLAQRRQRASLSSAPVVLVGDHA
Test: Kinase electrophoretic mobility shift assay, MNK2
Type: biochemical
Conditions: compounds tested at 10 μM, average of n = 2, ATP at apparent Km; read-out: MNK2 activity (percent inhibition)
Parameter inhibition at 10 µM: see the listing below.

Examples from the recorded data:
[
  {
    "COMPOUND": "Cc1ccccc1-c1c2n(c3nc(Nc4ccc(N5CCOCC5)cc4)ncc13)CCNC2=O [Compd 1]",
    "RESULT": "< 50%"
  },
  {
    "COMPOUND": "Cc1ccccc1-c1c2n(c3nc(N[C@H]4CC[C@H](O)CC4)ncc13)CCNC2=O [Compd 2]",
    "RESULT": "< 50%"
  }
]

Okay, next one:
Query: For the compound O=C1NCCn2c1cc1cnc(N[C@H]3CC[C@H](O)CC3)nc12 [Compd 3] , what inhibition at 10 µM is on record?
Reply: < 50%
